Every entry's value here was drawn from paper PMC8767159.

- assay.details: In vitro metabolic stability in mouse liver microsomes
- Assay type: in vitro ADME
- condition.label: mouse, liver microsomes, Table S5, CLint/fu, read-out: CLint_u (L/h/kg) Mouse (converted)
result.type: CLint scaled at 5 µM

O=C(COc1ccc2cc(O)ccc2c1)NCCc1nc2ccccc2[nH]1 ... 32.3 L/h/kg
O=C(COc1ccccc1)NCCc1nc2ccccc2n1CCCOc1ccccc1 ... 1850 L/h/kg
O=C(COc1ccccc1)NCCc1nc2ccccc2[nH]1 ... 72.1 L/h/kg
O=C(COc1cccc(N2C(=O)CCC2=O)c1)NCCc1nc2ccccc2[nH]1 ... 217 L/h/kg
O=C(COc1ccc(NC(=O)CCCO)cc1)NCCc1nc2ccccc2[nH]1 ... 4.51 L/h/kg
O=C(COc1cccc(NC(=O)CCCO)c1)NCCc1nc2ccccc2[nH]1 ... 8.19 L/h/kg
CC(=O)Nc1ccc(OCC(=O)NCCc2nc3ccccc3[nH]2)cc1 ... < 4.43 L/h/kg
Nc1cccc(OCC(=O)NCCc2nc3ccccc3[nH]2)c1 ... 22.8 L/h/kg

Here is another molecule to look at.
CLint scaled at 5 µM for `NC(=O)Cn1c(CCNC(=O)COc2ccccc2)nc2ccccc21` is 5.43 L/h/kg

###

- assay.details: In vitro metabolic stability in mouse liver microsomes
- Format: in vitro ADME
- condition.label: mouse, liver microsomes, Table S5, read-out: CLint (L/h/kg) Mouse (converted)
result.type: CLint scaled at 5 µM (L/h/kg)
Write down the numeric answer in L/h/kg and omit the unit.

O=C(COc1ccccc1Br)NCCc1nc2ccccc2n1CCOc1ccccc1Br ... 300
O=C(COc1ccc2cc(O)ccc2c1)NCCc1nc2ccccc2[nH]1 ... 26.4

// CLint scaled at 5 µM lookup, compound = `O=C(COc1ccc2c(C(=O)O)cccc2c1)NCCc1nc2ccccc2[nH]1` , result: 12.9

Looking up `Cc1ccccc1OCC(=O)NCCc1nc2ccccc2n1CCOc1ccccc1Br` , I found its CLint scaled at 5 µM recorded as 487

###

- system.under.test: rhodesain (Trypanosoma brucei rhodesiense, UniProt Q95PM0)
- Sequence (Q95PM0 entry or part of it): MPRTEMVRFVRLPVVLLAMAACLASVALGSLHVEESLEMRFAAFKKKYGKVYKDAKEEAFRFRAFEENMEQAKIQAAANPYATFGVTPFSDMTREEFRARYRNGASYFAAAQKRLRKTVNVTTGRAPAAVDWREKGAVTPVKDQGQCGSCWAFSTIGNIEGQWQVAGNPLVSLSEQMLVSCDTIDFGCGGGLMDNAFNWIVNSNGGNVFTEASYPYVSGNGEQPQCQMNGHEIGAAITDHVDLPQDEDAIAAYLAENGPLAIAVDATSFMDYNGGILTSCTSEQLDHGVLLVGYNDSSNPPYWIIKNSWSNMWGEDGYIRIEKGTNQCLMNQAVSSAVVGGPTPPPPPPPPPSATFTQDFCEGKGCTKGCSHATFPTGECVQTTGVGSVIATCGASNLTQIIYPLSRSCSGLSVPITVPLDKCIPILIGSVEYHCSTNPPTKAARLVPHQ
- assay.details: Rhodesain fluorescence-based inhibition assay (Z-FR-AMC)
- Type: biochemical
- condition.label: Table S3; compound 100 µM
Classify as follows. Reported inhibition at 100 µM greater than or equal to 60%: yes (1). Reported inhibition at 100 µM below: no (0).

Example results:
O=C(COc1ccc2ccc(O)cc2c1)NCCc1nc2ccccc2[nH]1 [Compound 11] ... yes (1)
COc1ccc2cc(OCC(=O)NCCc3nc4ccccc4[nH]3)ccc2c1 [Compound 12] ... no (0)
CC(=O)Nc1cccc(OCC(=O)NCCc2nc3ccccc3[nH]2)c1 [Compound 3] ... no (0)
O=C(COc1ccc2cc(C(=O)O)ccc2c1)NCCc1nc2ccccc2[nH]1 [Compound 13] ... no (0)

Turning now to a further record.
Is it the case that Nc1cccc(OCC(=O)NCCc2nc3ccccc3[nH]2)c1 [Compound 9] has inhibition at 100 µM reaching or exceeding 60%?
no (0)

###

- assay.details: In vitro metabolic stability in human liver microsomes
- Format: in vitro ADME
- condition.label: Table S5, CLint/fu
result.type: CLint_u (L/h/kg) Human
Numeric answer only, unit L/h/kg assumed.

These solved cases illustrate the format of a correct answer.
O=C(COc1ccc2ccccc2c1)NCCc1nc2ccccc2o1 ... 65.56
O=Cc1c(OCC(=O)NCCc2nc3ccccc3[nH]2)ccc2ccccc12 ... 71.18
O=C(COc1cccc2ccccc12)NCCc1nc2ccccc2[nH]1 ... 70.62
O=C(COc1ccccc1I)NCCc1nc2ccccc2[nH]1 ... 62.44
O=C(COc1cccc(N2C(=O)CCC2=O)c1)NCCc1nc2ccccc2[nH]1 ... 3.54

With those in mind, consider the next compound.
Data point: `CC(=O)Nc1ccccc1OCC(=O)NCCc1nc2ccccc2[nH]1` ; CLint_u (L/h/kg) Human = 3.94

###

- assay.details: In vivo pharmacokinetics in male CD1 mice
- Set-up: species or system mouse
- condition.label: mouse; Table 6; plasma clearance, IV 0.5 mg/kg, male CD1 mice; read-out: CLp (L/h/kg) IV (converted)
result.type: clearance (L/h/kg)
Provide only the numeric value, understood in L/h/kg.

Example cases with answers are listed next.
O=C(CCc1ccccc1Br)NCCc1nc2ccccc2[nH]1 [Compound 36] ... 9.5
O=C(COc1ccc(Br)cc1)NCCc1nc2ccccc2[nH]1 [Compound 33] ... 9.5
N#Cc1ccccc1OCC(=O)NCCc1nc2ccccc2[nH]1 [Compound 31] ... 4.6
Cc1ccccc1OCC(=O)NCCc1nc2ccccc2[nH]1 [Compound 17] ... 6.3

Then this molecule:
O=C(COc1ccc2ccccc2c1Br)NCCc1nc2ccccc2[nH]1 [Compound 34] has a reported clearance of 7.6

###

Measured PAMPA, listed per entry for reference.
- assay.details: Parallel artificial membrane permeability assay (PAMPA)
- Assay type: in vitro ADME
- Parameters: unit: 1e-6 cm/s
- condition.label: Table S5; unit not given
Answer with a bare number; do not write a unit.

// known answers, use as guide
C=CCCn1c(CCNC(=O)COc2ccccc2)nc2ccccc21 ... 9.06
O=C(COc1ccccc1)NCCc1nc2ccccc2n1CCOc1ccccc1 ... 4.30
O=C(COc1ccccc1)NCCc1nc2ccccc2[nH]1 ... 4.21

Shifting focus to the compound that follows.
get_value(item= `Nc1cccc(OCC(=O)NCCc2nc3ccccc3[nH]2)c1` , readout=PAMPA) returns 0.38

###

bioavailability values, listed per item
- assay.details: In vivo pharmacokinetics in male CD1 mice
- Set-up: species or system mouse
- condition.label: male, CD1, mouse, plasma, 0.5 mg/kg; Table S6; oral bioavailability, mice
Express it in %; write the number only.

Here is how some compounds turned out for bioavailability.
NC(=O)Cn1c(CCNC(=O)COc2ccccc2)nc2ccccc21 ... 35
O=C(COc1ccccc1)NCCc1nc2ccccc2[nH]1 ... 9
CC(=O)Nc1cccc(OCC(=O)NCCc2nc3ccccc3[nH]2)c1 ... 1
O=C(COc1ccc2cc(O)ccc2c1)NCCc1nc2ccccc2[nH]1 ... 0
O=C(Cn1ccnc1[N+](=O)[O-])NCc1ccccc1 [BZ, benznidazole, reference compound] ... 90

Quick note, bioavailability for `CC(=O)Nc1ccc(OCC(=O)NCCc2nc3ccccc3[nH]2)cc1` landed at 25

bioavailability measured on `O=C(COc1cccc([N+](=O)[O-])c1)NCCc1nc2ccccc2[nH]1` = 14

###

- assay.details: Fraction unbound by equilibrium dialysis
- Assay type: in vitro ADME
- condition.label: pH 7.4; Table S5; fraction unbound
fraction unbound at 4 h, 1 µM values, listed per item
Lab note: write the figure by itself, no unit.

Cn1c(CCNC(=O)COc2ccccc2)nc2ccccc21 ... 0.99

For the next question, use this compound.
Documented fraction unbound at 4 h, 1 µM of `O=C(COc1ccccc1)NCCc1nc2ccccc2n1CCCOc1ccccc1` : 0.27

###

- system.under.test: cruzain (Trypanosoma cruzi)
- Construct: made in house; host or cells: Escherichia coli (strain M15)
- Sequence (P25779 123-337 limits assumed): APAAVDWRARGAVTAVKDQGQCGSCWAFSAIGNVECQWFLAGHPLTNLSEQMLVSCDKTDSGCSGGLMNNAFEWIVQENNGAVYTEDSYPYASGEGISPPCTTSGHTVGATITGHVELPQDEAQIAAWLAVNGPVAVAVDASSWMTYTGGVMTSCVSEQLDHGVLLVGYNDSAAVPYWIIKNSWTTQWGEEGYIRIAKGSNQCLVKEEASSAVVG
- assay.details: Cruzain enzyme inhibition assay (cleavage of fluorogenic substrate Z-FR-AMC)
- Format: biochemical
- condition.label: Table S1; 0% Triton X-100
result.type: % cruzain inhibition, 0% Triton

O=C(COc1ccccc1)NCCc1nc2ccccc2n1CCOc1ccccc1 [Compound 20] ... 95.2 ± 0.6%

For O=C(COc1ccccc1Br)NCCc1nc2ccccc2n1CCOc1ccccc1Br [Compound 23] on cruzain (Trypanosoma cruzi), measured % cruzain inhibition, 0% Triton was 52.1 ± 1.3%

With cruzain (Trypanosoma cruzi) as the test system, O=C(COc1ccccc1)NCCc1nc2ccccc2n1CCCOc1ccccc1 [Compound 24] showed % cruzain inhibition, 0% Triton of 87.9 ± 0.7%

Considering O=C(COc1ccccc1)NCCc1nc2ccccc2n1CCOCc1ccccc1 [Compound 21] , its % cruzain inhibition, 0% Triton with cruzain (Trypanosoma cruzi) was recorded as 80.3 ± 1.4%

Given the compound O=C(COc1ccccc1)NCCc1nc2ccccc2n1CCOc1ccccc1Br [Compound 19] and test system cruzain (Trypanosoma cruzi), the measured % cruzain inhibition, 0% Triton is 73.4 ± 2.5%

###

- assay.details: Experimental distribution coefficient (eLogD) by LC retention time
- Type: physicochemical
- condition.label: C18 column (LC retention time), pH 7.4, Table 3; pH 7.4
result.type: chromatographic logD
The response must contain the number and no unit.

O=C(COc1ccccc1)NCCc1nc2ccccc2[nH]1 ... 2.9
COc1ccc2cc(OCC(=O)NCCc3nc4ccccc4[nH]3)ccc2c1 ... 3.89
Nc1cccc(OCC(=O)NCCc2nc3ccccc3[nH]2)c1 ... 1.88
O=C(COc1ccccc1)NCCc1nc2ccccc2n1CCOc1ccccc1 ... 4.24
NC(=O)Cn1c(CCNC(=O)COc2ccccc2)nc2ccccc21 ... 2.16

Entry under test: `O=C(COc1ccccc1)NCCc1nc2ccccc2n1Cc1ccccc1` . Its chromatographic logD was 4.06

Noted for `O=C(COc1cccc([N+](=O)[O-])c1)NCCc1nc2ccccc2[nH]1` : its chromatographic logD reads 2.98

// chromatographic logD lookup, molecule = `CC(=O)Nc1ccc(OCC(=O)NCCc2nc3ccccc3[nH]2)cc1` , result: 1.92

Value of measured chromatographic logD for the entry `CC(=O)Nc1cccc(OCC(=O)NCCc2nc3ccccc3[nH]2)c1` : 2.26

response.value for O=C(Cn1ccnc1[N+](=O)[O-])NCc1ccccc1 [BZ, benznidazole, reference compound] (field: chromatographic logD) = 0.84

Record `O=C(COc1ccccc1)NCCc1nc2ccccc2n1CCCOc1ccccc1` . Reported chromatographic logD: 4.45

Lab book: chromatographic logD of `Cn1c(CCNC(=O)COc2ccccc2)nc2ccccc21` noted as 2.93

Entry `O=C(COc1ccc2cc(O)ccc2c1)NCCc1nc2ccccc2[nH]1` — recorded chromatographic logD = 3.17

Looking up `C=CCCn1c(CCNC(=O)COc2ccccc2)nc2ccccc21` , I see its chromatographic logD listed as 3.75
